mortality values for the compounds below.
Assay: Toxicity in Swiss albino mouse assessed as mortality at 1.5 mmol/kg, ip measured 7 to 11 mins before pentylenetetrazole challenge
Assay type: organism-based
Details: in vivo, read-out: Activity
RECORDED ENDPOINT: mortality (%)

O=C1CCCN2C=CSC2=N1 ... 33
O=C1CCCN2C=C(Br)SC2=N1 ... 0
O=C1CCCN2C(=N1)Sc1cc(Cl)ccc12 ... 0
S=C1CCCN2C=CSC2=N1 ... 50
O=C1CCCN2C(=N1)Oc1ccc(Cl)cc12 ... 0
O=C1CCCN2C(=N1)Sc1ccccc12 ... 0

====

TD50 values for the compounds below.
Assay: Toxicity in ip dosed Swiss albino mouse assessed as sedative effect
Type: organism-based
Details: in vivo
RECORDED ENDPOINT: TD50

O=C1CCCN2C(=N1)Sc1cc(Cl)ccc12 ... 417 mg/kg
S=C1CCCN2C=C(Br)SC2=N1 ... 398 mg/kg
O=C1CCCN2C(=N1)Oc1ccc(Cl)cc12 ... 355 mg/kg
